ASSAY PROTOCOL: Oral and transdermal celecoxib concentrations in canine sera and synovial fluid
Assay type: in vivo
CONDITION PARAMETERS: dog, serum, topical, 60 mg; dogs; Transdermal, 3% celecoxib in formulation 4, 120 mg/day; Chronic administration (6 days); read-out: Serum drug concentration of celecoxib
READOUT: concentration at 60 min (ng/mL)
All answers are understood in ng/mL, so give the number only.

Qu. For Cc1ccc(-c2cc(C(F)(F)F)nn2-c2ccc(S(N)(=O)=O)cc2)cc1 [celecoxib] , what is its reported concentration at 60 min?
Ans. 221

###

ASSAY PROTOCOL: Oral and transdermal celecoxib concentrations in canine sera and synovial fluid
Type: in vivo
CONDITION PARAMETERS: dog, serum; dogs; Oral, 30 mg capsule PO twice daily (60 mg/day); Chronic administration (6 days); read-out: Serum drug concentration of celecoxib
READOUT: concentration at 60 min
Write your answer as a measured quantity: the number, then the unit.

Qu. Could you share which concentration at 60 min value was measured for Cc1ccc(-c2cc(C(F)(F)F)nn2-c2ccc(S(N)(=O)=O)cc2)cc1 ?
Ans. 312 ng/mL
